The measured values listed here are drawn from ChEMBL document CHEMBL1641576.

- METHOD_SUMMARY: Volume of distribution at steady state in rat at 1 mg/kg, iv
- Type: ADME, organism-based
- Set-up: dose 1 mg/kg, route intravenous
- MEASUREMENT_PARAMETERS: in vivo, read-out: Vdss
PARAMETER: Vd (L/kg)

Cc1ccc(C(=O)c2cccn2C/C=C/c2cccc(OCC(=O)[O-])c2)cc1.[Na+] | 0.3

* * *

- MEASUREMENT_TARGET: Peroxisome proliferator-activated receptor alpha (Mus musculus, UniProt P23204)
- METHOD_SUMMARY: Agonist activity at mouse PPARalpha ligand binding domain expressed in COS-1 cells co-transfected with Gal4 by luciferase reporter gene assay
PARAMETER: EC50 (µM)

Cc1ccc(C(=O)c2cccn2C/C=C/c2cccc(OCC(=O)O)c2)cc1 | 4.9

* * *

- MEASUREMENT_TARGET: Peroxisome proliferator-activated receptor alpha (Homo sapiens) (UniProt Q07869)
- Sequence (Q07869 whole entry, the tested form may be a part): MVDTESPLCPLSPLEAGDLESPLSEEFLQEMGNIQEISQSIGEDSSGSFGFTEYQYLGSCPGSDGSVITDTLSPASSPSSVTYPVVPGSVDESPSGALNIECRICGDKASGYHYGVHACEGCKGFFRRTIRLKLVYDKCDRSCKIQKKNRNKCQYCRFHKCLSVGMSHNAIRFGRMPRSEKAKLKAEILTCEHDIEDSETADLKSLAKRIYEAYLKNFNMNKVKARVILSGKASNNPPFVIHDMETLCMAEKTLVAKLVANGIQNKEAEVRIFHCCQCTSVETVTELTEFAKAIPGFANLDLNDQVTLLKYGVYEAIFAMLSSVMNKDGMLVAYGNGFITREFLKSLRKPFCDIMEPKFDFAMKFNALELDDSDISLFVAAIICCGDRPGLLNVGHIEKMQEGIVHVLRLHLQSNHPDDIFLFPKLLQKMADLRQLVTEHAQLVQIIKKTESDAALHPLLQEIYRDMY
- METHOD_SUMMARY: Agonist activity at human PPARalpha ligand binding domain expressed in COS-1 cells co-transfected with Gal4 at 10 uM by luciferase reporter gene assay relative to control
- Format: cell-based
PARAMETER: fold change (FC)

COc1ccc(C(=O)c2cccn2C/C=C/c2ccccc2OCC(=O)O)cc1 | 0.8
COc1ccc(C(=O)c2cccn2C/C=C/c2cccc(CC(=O)O)c2)cc1 | 1.6
COc1ccc(C(=O)c2cccn2C/C=C/c2cccc(OCC(=O)O)c2)cc1 | 5.8
COc1ccc(C(=O)c2cccn2C/C=C/c2ccc(OCC(=O)O)cc2)cc1 | 3.5
COc1ccc(C(=O)c2cc(C)cn2C/C=C/c2ccc(Cl)cc2C(=O)NS(C)(=O)=O)cc1 | 0.9
COc1cccc(C(=O)c2cccn2C/C=C/c2cccc(OCC(=O)O)c2)c1 | 1.4
Cc1cccc(C(=O)c2cccn2C/C=C/c2cccc(OCC(=O)O)c2)c1 | 1.9
COc1ccccc1C(=O)c1cccn1C/C=C/c1cccc(OCC(=O)O)c1 | 0.9
Cc1ccccc1C(=O)c1cccn1C/C=C/c1cccc(OCC(=O)O)c1 | 1.1
CC(C)(Oc1ccc(C(=O)c2ccc(Cl)cc2)cc1)C(=O)O | 5.6
COc1ccc(C(=O)c2cccn2C/C=C/c2ccc(CC(=O)O)cc2)cc1 | 0.8
COc1ccc(C(=O)c2cccn2C/C=C/c2ccccc2CC(=O)O)cc1 | 1
Cc1ccc(C(=O)c2cccn2C/C=C/c2cccc(OCC(=O)O)c2)cc1 | 5.2

* * *

- MEASUREMENT_TARGET: Peroxisome proliferator-activated receptor gamma (Homo sapiens, UniProt P37231)
- METHOD_SUMMARY: Agonist activity at human PPARgamma ligand binding domain expressed in COS-1 cells co-transfected with Gal4 by luciferase reporter gene assay
pEC50: −log10 of the molar value.
PARAMETER: pEC50

COc1ccc(C(=O)c2cccn2C/C=C/c2cccc(OCC(=O)O)c2)cc1 | 5.72
COc1ccc(C(=O)c2cccn2C/C=C/c2cccc(CC(=O)O)c2)cc1 | 5.70
Cc1ccc(C(=O)c2cccn2C/C=C/c2cccc(OCC(=O)O)c2)cc1 | 5.92
COc1ccc(C(=O)c2cc(C)cn2C/C=C/c2ccc(Cl)cc2C(=O)NS(C)(=O)=O)cc1 | 4.92

* * *

Consider the following compounds and their measured pEC50 readings.
- MEASUREMENT_TARGET: Peroxisome proliferator-activated receptor alpha (Homo sapiens)
- Sequence (Q07869 whole entry, the tested form may be a part): as above
- METHOD_SUMMARY: Agonist activity at human PPARalpha ligand binding domain expressed in COS-1 cells co-transfected with Gal4 by luciferase reporter gene assay
pEC50: −log10 of the molar value.
PARAMETER: pEC50

CC(C)(Oc1ccc(C(=O)c2ccc(Cl)cc2)cc1)C(=O)O [FENOFIBRIC ACID] | 4.92
Cc1ccc(C(=O)c2cccn2C/C=C/c2cccc(OCC(=O)O)c2)cc1 | 5.74
COc1ccc(C(=O)c2cccn2C/C=C/c2cccc(CC(=O)O)c2)cc1 | 4.68
COc1ccc(C(=O)c2cccn2C/C=C/c2cccc(OCC(=O)O)c2)cc1 | 5.43

* * *

- Species on record: Homo sapiens
- METHOD_SUMMARY: Selectivity ratio, ratio of EC50 for human PPARalpha ligand binding domain to EC50 for human PPARgamma ligand binding domain
Consider the following compounds and their measured Ratio EC50 readings.
PARAMETER: Ratio EC50

COc1ccc(C(=O)c2cccn2C/C=C/c2cccc(OCC(=O)O)c2)cc1 | 1.9
Cc1ccc(C(=O)c2cccn2C/C=C/c2cccc(OCC(=O)O)c2)cc1 | 1.5
COc1ccc(C(=O)c2cccn2C/C=C/c2cccc(CC(=O)O)c2)cc1 | 11

* * *

- METHOD_SUMMARY: AUC in rat at 1 mg/kg, iv
- Assay type: ADME, organism-based
- Set-up: dose 1 mg/kg, route intravenous
- MEASUREMENT_PARAMETERS: plasma
PARAMETER: AUC (ng·h/mL)

Cc1ccc(C(=O)c2cccn2C/C=C/c2cccc(OCC(=O)[O-])c2)cc1.[Na+] | 14000

* * *

- METHOD_SUMMARY: Clearance in rat at 1 mg/kg, iv
- Assay type: ADME, organism-based
- Set-up: dose 1 mg/kg, route intravenous
- MEASUREMENT_PARAMETERS: in vivo
PARAMETER: clearance (mL/min/kg)

Cc1ccc(C(=O)c2cccn2C/C=C/c2cccc(OCC(=O)[O-])c2)cc1.[Na+] | 1.2

* * *

- METHOD_SUMMARY: Oral bioavailability in rat at 10 mg/kg
- Assay type: ADME, organism-based
- MEASUREMENT_PARAMETERS: in vivo
PARAMETER: bioavailability (%)

Cc1ccc(C(=O)c2cccn2C/C=C/c2cccc(OCC(=O)[O-])c2)cc1.[Na+] | 42

* * *

- MEASUREMENT_TARGET: Peroxisome proliferator-activated receptor gamma (Homo sapiens)
- METHOD_SUMMARY: Agonist activity at human PPARgamma ligand binding domain expressed in COS-1 cells co-transfected with Gal4 by luciferase reporter gene assay relative to pioglitazone
- Format: cell-based
Consider the following compounds and their measured Emax readings.
PARAMETER: Emax (%)

Cc1ccc(C(=O)c2cccn2C/C=C/c2cccc(OCC(=O)O)c2)cc1 | 17
COc1ccc(C(=O)c2cc(C)cn2C/C=C/c2ccc(Cl)cc2C(=O)NS(C)(=O)=O)cc1 | 19
COc1ccc(C(=O)c2cccn2C/C=C/c2cccc(CC(=O)O)c2)cc1 | 37
COc1ccc(C(=O)c2cccn2C/C=C/c2cccc(OCC(=O)O)c2)cc1 | 16

* * *

- METHOD_SUMMARY: AUC in rat at 10 mg/kg, po
- Type: ADME, organism-based
- Set-up: dose 10 mg/kg, route oral
- MEASUREMENT_PARAMETERS: plasma
PARAMETER: AUC (µg·h/mL)

Cc1ccc(C(=O)c2cccn2C/C=C/c2cccc(OCC(=O)[O-])c2)cc1.[Na+] | 59

* * *

- METHOD_SUMMARY: Cmax in rat at 10 mg/kg, po
- Format: ADME, organism-based
- Design: dose 10 mg/kg, route oral
- MEASUREMENT_PARAMETERS: in vivo
PARAMETER: Cmax

Cc1ccc(C(=O)c2cccn2C/C=C/c2cccc(OCC(=O)[O-])c2)cc1.[Na+] | 4300 ng/mL
